- Study System: T1, human PD-L1 expressed on CHO-K1 cells (Genscript, Cat #M00543) (human, UniProt Q9NZQ7 19-290)
- T1 construct: also called PD-L1 cell line
- T1 sequence (Q9NZQ7 19-290, one chain of several): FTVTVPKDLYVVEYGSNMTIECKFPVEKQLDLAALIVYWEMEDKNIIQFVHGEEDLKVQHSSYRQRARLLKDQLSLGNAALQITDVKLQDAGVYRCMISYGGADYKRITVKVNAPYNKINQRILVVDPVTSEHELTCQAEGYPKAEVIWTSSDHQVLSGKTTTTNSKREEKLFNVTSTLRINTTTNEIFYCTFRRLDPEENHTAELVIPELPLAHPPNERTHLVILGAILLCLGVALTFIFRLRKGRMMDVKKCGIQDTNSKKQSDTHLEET
- Assay Method Text: FACS, CHO-K1/human PD-L1 cells
Observed Property: Top (best-fit value)

Here are 4 binders together with their reported answers.
{"Binder": "1H1G4D9 (antibody, V domains shown, Mouse mAb from hybridoma culture) VH: EGQLQQSGAELVKPGASVILSCTASGFNIKDTYIHWLNQRPEQGLEWIGRIEPANGNTKYDPTFQGKATITADTSSNTAYLQLTSLTSEDTAVYYCSRGGIYYYGSHWYFDVWGAGTLVTVSS VL: DVLMTQTPLSLPVSLGDQASISCRSSQNIVYSDGDTYLEWYLQKPGQSPKLLIFKVSNRFSGVPDRFSGSGSGTDFTLKISRVEAEDLGVYYCFQGSHVPFTFGSGTKLEIK", "Top (best-fit value)": 1760}
{"Binder": "27D3D3G2 (antibody, V domains shown, Mouse mAb from hybridoma culture) VH: QVLLQQSGPELVKPGASVRISCKASGYTFTSYYMHWVKQRPGQGLEWIGWIYPGNVNTKYNEKFKGKATLTADKSSSTAYMQLSSLTSEDSAVYFCASYGNYGGWYFDVWGAGTTVTVSS VL: DIQMTQTTSSLSASLGDRVTISCRASQDIGNYLNWYQQKPDGTVKLLIYYTSRLHSGVPSRFSGSGSGTDYSLTISNLEQEDIATYFCQQGDTFPWTFGGGTKLEIK", "Top (best-fit value)": 1770}
{"Binder": "42G2D7C3 (antibody, V domains shown, Mouse mAb from hybridoma culture) VH: DVQLLESGPGLVKPSQSLSLTCSVTGYSITSGYYWNWIRQFPGNNLEWMGSINYDGSNDYNPSLQDRISITRDTSKNQFFLKLNSVTTEDTATYYCARRLDYWGQGTTLIVSS VL: QIVLTQSPAIMSASPGEKVTISCSASSFINYMYWYQQKPGSSPKPWILRTSTLASGVPARFSGSGSGTSYSLTISSMEAEDAATYYCQQYHSYPLTFGAGTKLELK", "Top (best-fit value)": 1780}
{"Binder": "29A8H8C7 (antibody, V domains shown, Mouse mAb from hybridoma culture; also called mouse 29A8H8C7) VH: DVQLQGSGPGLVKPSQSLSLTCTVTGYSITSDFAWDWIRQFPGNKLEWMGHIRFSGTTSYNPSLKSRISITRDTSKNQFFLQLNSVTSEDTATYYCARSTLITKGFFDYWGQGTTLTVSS VL: DIVMTQSHKFMSTSVGGRVSITCKASQDVSPAVAWYQQKPGQSPKLLIYWASTRHTGVPDRFTGSGSGTDFTLTISSVQTEDLALYYCQQHYSTPWTFGGGTKLEIK", "Top (best-fit value)": 2440}

# ---- query binder ----
query: # get_value(readout='Top (best-fit value)', item= 53C1F3D4 (antibody, V domains shown, Mouse mAb from hybridoma culture; also called mouse 53C1F3D4) VH: QVQLQQSGNELARPGASVRLSCKASGYIFTGYGITWVRQRPGQGLEWIGEIFPRRVNTYYSEKFKGRATLTADISSSTAYMELRSLTSEDSAVYFCARDYDPYFALDYWGQGTSVTVSS VL: DIVMTQSHKFMSTSVGDRVSITCKASQDVSTAVDWYQQKPGQSPKLLIYSASYRYTGVPDRFTGSGSGTAFTFTISGEQAEDLAVYYCQQHYSIPFTFGGGTKLEIK )
result: 2020
